# system: UniProtKB P50454
# Sequence (P50454 19-418, species assumed): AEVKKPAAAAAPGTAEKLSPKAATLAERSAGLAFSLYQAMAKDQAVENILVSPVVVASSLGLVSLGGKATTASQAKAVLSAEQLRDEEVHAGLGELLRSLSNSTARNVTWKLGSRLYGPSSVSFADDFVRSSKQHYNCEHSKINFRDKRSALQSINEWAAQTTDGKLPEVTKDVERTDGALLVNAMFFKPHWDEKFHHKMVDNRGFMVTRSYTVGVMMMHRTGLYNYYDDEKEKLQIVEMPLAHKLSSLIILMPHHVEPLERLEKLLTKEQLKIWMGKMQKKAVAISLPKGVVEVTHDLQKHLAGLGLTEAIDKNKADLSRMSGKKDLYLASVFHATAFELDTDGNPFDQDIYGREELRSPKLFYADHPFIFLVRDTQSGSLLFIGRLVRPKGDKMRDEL
# assay procedure: Evaluation of HSP47 activity (inhibition of collagen fibril formation, 340 nm)
# Type: biochemical
# protocol conditions: HSP47 inhibition, 100 μM
measure name: inhibition at 100 µM (%)

As a guide, the following entries are already answered.
smi	value units	observed value
Cc1oc2ccc(Br)cc2c1C(=O)c1cc(Br)c(O)c(Br)c1	%	75.2
CCc1oc2cccc(Cl)c2c1C(=O)c1cc(Br)c(O)c(Br)c1	%	23.3
CCc1oc2c(F)cccc2c1C(=O)c1cc(Br)c(O)c(Br)c1	%	18.1
Cc1oc2cc(Br)ccc2c1C(=O)c1cc(Br)c(O)c(Br)c1	%	19.5

P = CCc1oc2cc(C)ccc2c1C(=O)c1cc(I)c(O)c(I)c1
Q = CCc1oc2cc(Br)ccc2c1C(=O)c1cc(I)c(O)c(I)c1
R = CCc1ccc2c(C(=O)c3cc(Br)c(O)c(Br)c3)c(CC)oc2c1
Arrange the 3 compounds by rising inhibition at 100 µM, starting with the smallest. When ranking, write the labels in the order the request describes.
R, P, Q
(R: 26.3%, P: 41.8%, Q: 69.2%)
